# measurementNotes: protein stability index of a GFP-peptide fusion (yeast GPS) (PSI 1-4); higher = more stable; sorted into four equal gates, so the index is relative within each strain
# conditionDetails: doa10∆
What protein stability index was measured for each of the following?
Quick one: just the number, no unit, thanks!

Read off the recorded protein stability index for ILSEILCQINKCSTRGL [YML103C/NUP188] 1.31

Find the measured protein stability index of GSLKLPNCPRPNMSICI [RPL1A] and report it. 2.62

Complete the entry with protein stability index for GGESAYFFQLQIRSADE [RPC11] 2.73

Output measured protein stability index for this item: AHRVRDLMDEELRKHAQ [SKI6] 3.14

Please indicate protein stability index recorded for GIVSVSDPQMKVFDTLT [RPN1] 2.81

Annotate the sequence VFESLEINNLIQLPASL [ARP9] with its measured protein stability index. 1.61

----------
# measurementNotes: protein stability index of a GFP-peptide fusion (yeast GPS) (PSI 1-4); higher = more stable; sorted into four equal gates, so the index is relative within each strain
# conditionDetails: doa10∆
Please respond with reported protein stability index for every item in the list.
The answer should be written as a number, with no unit following it.

Check the records and state protein stability index for TGNFIIPSGNVWNYTFM [PRP8] 3.05

Give the value of protein stability index reported for the following: NSDIANLRTQVTQQKRS [SMC1] 3.05

Respond only with protein stability index recorded for PKVSAGDSGISPEESKA [SIR4] 3.44

Using known records, supply protein stability index for LGYPPISLVDDIINAVN [MTW1] 2.46

Please report protein stability index for the following sequence: FKVRTNLNDKFGIYILT [MED1] 1.76

Supply reported protein stability index belonging to this sequence: ENDEEDIYMHDVNSASK [RRP4] 3.47

----------
# measurementNotes: protein stability index of a GFP-peptide fusion (yeast GPS) (PSI 1-4); higher = more stable; sorted into four equal gates, so the index is relative within each strain
# conditionDetails: doa10∆
Record form. Attribute: protein stability index. Fill in for each entry.
Output: the number by itself.

Report protein stability index for IEDEDEPFNAGIKYHAT [SMC1] 3.04

Return protein stability index for the following sequence: RCKIYFFYLRISKKLQF [PCI8] 1.29

Look up and state reported protein stability index for QRARDQDSIDISIKDNK [GAL11] 3.25

Return protein stability index for the following sequence: HYNDSQQLRTWKRQISY [SRB8] 3.25

Please report protein stability index for the following sequence: NALEHKYFTESDIPVSE [SSN3] 2.3

Given the sequence KRKEELVSTLTTGISST [SMC2] , write its reported protein stability index. 2.3

Assign protein stability index to the following record: RAYMRPLGVILTFVSVD [SCL1] 1.74

Answer with the recorded protein stability index for the sequence listed here: TDLHLPKKEYDDDAVRR [NSL1] 1.99

Please give measured protein stability index of the following entry: MASNEVLVLRGTLEGHN [ASC1] 3.06

For the sequence SNDLDKFFQKKIHLYEK [YGL172W/NUP49] , give its measured protein stability index value. 2.21

Answer with reported protein stability index of EINLSKIFQTTPEKDLF [YCS4] 2.72

Return reported protein stability index. Input sequence: SLLAMHKHNIMKNENAN [CDC53] 2.2

Name the recorded protein stability index of the sequence listed here: SKMGAPWCVKPEYLAMY [ITC1] 2.92

State its protein stability index for this sequence: LLPANLLSLNSVRSLQK [SRP68] 2.71

Fill in protein stability index for record IRKGANDGEVYQKIFKP [PRE9] 2.06

Quick one: give measured protein stability index for SFKKIIKFLLTFIDKER [YCS4] 1.16

Read off the recorded protein stability index for FNNEKETEKFALERNWP [RPN12] 2.68

Please look at this sequence and report its protein stability index: MRILSNDITNLQLSKTP [SRB8] 2.59

Recall and state the measured protein stability index for KQINEARDEILPLRLQF [PGD1] . 2.13

Provide only the value of recorded protein stability index for PINLENNDGSYGLFLKY [SRB8] 3.07

Respond only with protein stability index recorded for AQWERSKLSQEFLYPHL [SNF12] 3.1

Specify reported protein stability index for the sequence shown: EEITCALDYLIPPPMPK [MED7] 1.86

Give recorded protein stability index. ISPKIWCAGAGTAADTE [PUP1] 2.29

Return value of protein stability index for input ITSFDQDVDDAHAIDQM [POP8] , no commentary. 1.55

----------
# measurementNotes: protein stability index of a GFP-peptide fusion (yeast GPS) (PSI 1-4); higher = more stable; sorted into four equal gates, so the index is relative within each strain
# conditionDetails: doa10∆
Assign TRUE to entries whose protein stability index meets or exceeds 3; assign FALSE to the rest.

Has QRSRRKFSERRKALPKE [DSN1] a recorded protein stability index greater than or equal to 3? TRUE

API: above_or_equal(metric=protein stability index, cutoff=3) for item DNETKAMLINLILRDFL [RPN3] FALSE

Item SLYIYYLIKLLGFEVKD [SIR2] with protein stability index of 3 or above? FALSE

Evaluate DRAIRKTCQWYSEHLKP [DIS3] : protein stability index at minimum 3? TRUE

Determine whether measured protein stability index meets or exceeds 3 for SRQKSGLFDSFTNGVLA [YML031W/NDC1] FALSE

----------
# measurementNotes: protein stability index of a GFP-peptide fusion (yeast GPS) (PSI 1-4); higher = more stable; sorted into four equal gates, so the index is relative within each strain
# conditionDetails: doa10∆
measuredEndpoint: protein stability index
I only need the number, thanks.

Consider the sequence DITGIRDVSDDVFDTLA [GRR1] . State its measured protein stability index. 3.02

For the sequence VLISKLSCEKITHYAVR [RRI1] , report protein stability index. 1.45

Give a short answer stating reported protein stability index for QFSQLNDPNAAVNMTQN [MED6] . 2.71

Read the entry NGGVGVDVELITSINVE [FAS2] and write its reported protein stability index. 2.93

Hello, please tell me recorded protein stability index for this one: KQENSTLLKKANRDDVK [RPC82] 2.72

State its protein stability index: AAKTRSYNWGAKAKRRH [RPL37A] 3.7

Give the reported protein stability index for this sequence. RLNTVTRVHQLMLEDAV [MCD1] 3.32

Indicate its recorded protein stability index; the sequence in question is NQLEDFILELEHKTPEL [YIL149C/MLP2] 2.74

Supply recorded protein stability index for GETIKSNAVTQTNIWEE [SEM1] here. 3.37

Check the records and state protein stability index for PPLTYKNDTKILVLALE [PRP8] 2.58

Please supply the value of reported protein stability index for the item PKDTSAATMTSAPPPAL [RGR1] 2.49

Note protein stability index for the sequence shown: DNVVRFLNEARDKAGRL [RPO21] 2.48

Recall and state the measured protein stability index for EINPFLLGTMAGGAADC [PRE2] . 2.88

For the sequence WGGFPLDISVFLLEKAG [TAF14] , report protein stability index. 3.2

Assign protein stability index to the following record: NEDSKAFHTAVLRLNAI [NUT1] 3.26

Provide one value: measured protein stability index of IIDRGRNVLSASLDGTI [RPN14] 3.1

Assign protein stability index to the following record: QKQWDDIAFVLNNLPYK [YCS4] 2.48

Item SSLFNNSTNSNTTKPAF [YJL041W/NSP1] : provide protein stability index 2.45

Give the measured protein stability index for IESIVNLAPKLRNVFLG [GRR1] 1.94

Supply recorded protein stability index for ALIFIFFAYFIGWCKED [YJL039C/NUP192] here. 1.84

// Input: VAEIEKTADVKRQYVKQ [RPL20A] . Output its protein stability index only. 3.33

Report protein stability index for IFSVHGNTVVDGEGKVD [YCG1] 3.12

State its protein stability index for this sequence: TKAQQKTAEQIAAERAA [RPL7B] 2.81

Please list protein stability index recorded for the sequence ALVYSYIEASGREGIWS [RPC34] 3.13

Provide one value: measured protein stability index of LQLTTNTEQGDSDELGG [SNM1] 3.25

Output protein stability index of KAAFEDLKSKGLIPADA [FAS1] 3

Name the recorded protein stability index of the sequence listed here: LNGILADEMGLGKTIQT [SNF2] 2.91

Complete the entry with protein stability index for KTKEAVAALKAVGAHSD [RPL4A] 3.47

State its protein stability index for this sequence: ISTYISTDELVGSPLTV [POP8] 1.49

Retrieve protein stability index measured for FGNIMDNLLEMSDHSLD [RRP6] and print it. 2.42

For the sequence AVSAASVVSMSNDVLKP [SIR2] , give its measured protein stability index value. 2.5

Please give the documented protein stability index of TKLYFDVNEKIRFRIER [RPC25] 2.97

Dear colleague, please send me the reported protein stability index for QNDILQESFINTMSAWV [FAS2] when you can. 2.14

Report protein stability index, nothing else, for this sequence: INSAPDFTQEDELRKQE [ISW2] 3.24

Provide one value: measured protein stability index of TEHSKVTRFDEKQIEEL [SRB6] 3.2

// fetch protein stability index given entry QREDKLKSHYYQTCKNS [SMC2] 1.24

Name the recorded protein stability index of the sequence listed here: QTENDLKDIEARIKEKA [RPT1] 2.8

Indicate the recorded protein stability index value for this sequence: LQHELMISIIKLVTNVV [YML103C/NUP188] 1.54

Name the recorded protein stability index of the sequence listed here: YVGNKRLELAGQLISLL [RET1] 2.84

State its protein stability index for this sequence: NMMDAISFVLGVRSNHL [SMC1] 2.28

Let me know recorded protein stability index for KTYEPVLNEDDLAFGGE [RPN5] , thanks. 3.27

In one line, give reported protein stability index of the entry LKAQITSLKCLVNRKPI [SNF2] . 2.05

Answer with the recorded protein stability index for the sequence listed here: QFSESTHNDIDSTAVAL [YJL039C/NUP192] 2.76
